For each of the compounds below, state its GI50.
# Test system: 786-0 renal
# experiment: NCI tumour cell line growth inhibition, 48 h

- molecule: "O=c1[nH]c(-c2ccccn2)nc2sc3c(c12)CCCCCC3"
  tgt: "786-0 renal"
  GI50: "5.65 µM"
- molecule: "CC(=O)N[C@@H]1CCC[C@H](C(=O)Nc2cc(-c3cnn4c3CC(C)(C)C4)c(Cl)cn2)C1"
  tgt: "786-0 renal"
  GI50: "< 0.01 µM"
- molecule: "C=C(C)[C@@H]1CCC[C@]2(C(=O)O)CC[C@]3(C)[C@@H](CC[C@@H]4[C@@]5(C)C/C(=C/c6ccncc6)C(=O)C(C)(C)[C@@H]5CC[C@]43C)[C@@H]12"
  tgt: "786-0 renal"
  GI50: "2.24 µM"
- molecule: "Cn1cc(-c2nn3cc(-c4cccs4)nc3s2)c2cc(F)ccc21"
  tgt: "786-0 renal"
  GI50: "7.62 µM"
- molecule: "CCSc1nc(N)c2cnn(C)c2n1"
  tgt: "786-0 renal"
  GI50: "80 µM"

List reported GI50 for each of these compounds:
1. Nc1ccc2c(c1)CN1C(=O)c3ccccc3C1=N2
2. COc1cc(C(=O)N/N=C/c2cccc([N+](=O)[O-])c2)cc(OC)c1OC
3. C=CC[PH+](c1ccccc1)c1ccccc1.C=CC[PH+](c1ccccc1)c1ccccc1.[Cl][Pt][Cl]
4. COC(=O)Nc1nc2ccc(Sc3ccc(NC(=O)Nc4cc(C(F)(F)F)ccc4F)cc3)cc2[nH]1
5. COc1cc(/C=C\c2cccnc2Nc2ccccc2)cc(OC)c1OC
6. CN1CCN(C(=S)SCN2C(=O)c3ccccc3S2(=O)=O)CC1

A.
1. 36.8 µM
2. 5.8 µM
3. 12.6 µM
4. 5.64 µM
5. 5.98 µM
6. 12 µM

----------
# Test system: MDA-MB-435
# experiment: NCI tumour cell line growth inhibition, 48 h
measurement.name: TGI (µM)
Numbers only, in µM.

- compound: "COC(=O)C1(Cc2ccccc2)Cc2ccccc2C1=O (centres undefined)"
  observed: 53.4
- compound: "COc1ccc(C=O)cc1Oc1ccc(C[C@H]2c3c(cc(OC)c4c3Oc3cc5c(cc3O4)CCN(C)C5=O)CCN2C)cc1"
  observed: 21.7
- compound: "Cc1ccc(OCCCCCCNCCO)c(C)c1"
  observed: 28.1
- compound: "CC(=O)N[C@@H]1CCC[C@H](C(=O)Nc2cc(-c3cnn4c3CC(C)(C)C4)c(Cl)cn2)C1"
  observed: 11.9
- compound: "COc1ccc(S(=O)(=O)Nc2ccc(-c3csc(N4C(=O)/C(=C/C=C\\c5ccccc5)N=C4c4ccccc4)n3)cc2)cc1Cl"
  observed: 62

Measured TGI, C[C@@H](C[C@@H](O)[C@H](O)C(C)(C)O)[C@H]1CC=C2[C@]3(C)[C@H](O)C[C@H]4C(C)(C)[C@H](O)CC[C@]4(C)[C@H]3CC[C@@]21C : 31.4

----------
# Tested on: HL-60(TB) leukemia
# experiment: NCI tumour cell line growth inhibition, 48 h; in the data active = GI50 below about 0.43 µM; inactive = the rest
In this exercise, the only acceptable responses are active, inactive

Q. Assay result, entry CN(C)c1ccc(Sc2ccc3nc(N)nc(N)c3c2)cc1 — outcome?
A. inactive

Q. Assay result, entry CC1(C)CC2(C)OC2C2(C1)N=NC(=Nc1ccccc1)O2 (stereo not drawn) — outcome?
A. inactive

Q. Assay result, entry Cc1ccc(OCCCCCCNCCO)c(C)c1 — outcome?
A. active

Q. Assay result, entry COc1ccc(S(=O)(=O)NCCNc2nccc(-c3c(-c4ccccc4)nc4sccn34)n2)cc1 — outcome?
A. inactive

Q. Assay result, entry COc1cc(C2c3cc4c(cc3[C@@H](Nc3cccc(O)c3)C3COC(=O)[C@H]23)OCO4)cc(OC)c1O (stereo partly drawn) — outcome?
A. active

Q. Assay result, entry O=C1/C(=C/c2ccccc2)CN(C(=O)Oc2ccc([N+](=O)[O-])cc2)C/C1=C\c1ccccc1 — outcome?
A. inactive

Q. Assay result, entry O=c1c2cc(F)ccc2sc2c(NCCCN3CCCC3)nc3ccccc3c12 — outcome?
A. inactive

Q. Assay result, entry CCSc1nc(N)c2cnn(C)c2n1 — outcome?
A. inactive

----------
For each of the compounds below, state its TGI.
# Tested on: DU-145 prostate
# experiment: NCI tumour cell line growth inhibition, 48 h

- compound: "CN(C)CCNC(=O)c1cccc2c(NC(CS)C(=O)O)c3ccccc3nc12 (centres undefined)"
  tgt: "DU-145 prostate"
  observed: "> 100 µM"
- compound: "CC(C)(C)c1cc(C(=O)Nc2cc3ccccc3cc2C(=O)NCCN)cc(C(C)(C)C)c1"
  tgt: "DU-145 prostate"
  observed: "1.29 µM"
- compound: "Cc1ccc(OCCCCCCNCCO)c(C)c1"
  tgt: "DU-145 prostate"
  observed: "30.6 µM"

--- query ---
Measured TGI, Cc1nn(C(=O)c2ccccc2O)c2c1C(c1ccc(O)cc1)SC(N)=N2 (centres undefined) : > 10 µM

----------
# System: CCRF-CEM leukemia
# experiment: NCI tumour cell line growth inhibition, 48 h
measurement.name: TGI

Reference set, count: 3
- compound: "O=C(O)CNC(=O)c1cccc2c(=O)c3ccccc3[nH]c12"
  tgt: "CCRF-CEM leukemia"
  measurement.name: "TGI"
  observed: "> 100 µM"
- compound: "COc1cc(C(=O)/C=C/c2c(C(F)(F)F)nc3sccn23)cc(OC)c1OC"
  tgt: "CCRF-CEM leukemia"
  measurement.name: "TGI"
  observed: "8.34 µM"
- compound: "Clc1ncc(C(Cl)(Cl)Cl)nc1-c1ccccc1"
  tgt: "CCRF-CEM leukemia"
  measurement.name: "TGI"
  observed: "> 100 µM"

List reported TGI for each of these compounds:
1. COc1cc(C(=O)N/N=C/c2cccc([N+](=O)[O-])c2)cc(OC)c1OC
2. COc1cc2c(cc1OC)C1Cc3ccccc3CN1CCC2 (centres undefined)
3. COC(=O)C1=C(O)C(C(=O)OC)[C@@]2(O)[C@@H](C(=O)OC)C(c3ccc(OC(=O)C(CC(C)C)NC(C)=O)cc3)C[C@@H]1[C@@H]2C(=O)OC (some centres undefined)
4. O=C(NO)C(O)C(O)C(O)C(O)CO (centres undefined)

A.
["> 100 µM", "> 100 µM", "> 100 µM", "> 100 µM"]

List reported TGI for each of these compounds:
1. C/C(=N\NC(=S)N1CCC(C2CCN(C(=S)N/N=C(\C)c3ccccn3)CC2)CC1)c1ccccn1
2. COC(=O)CNC(=O)/C=C/[C@H](O[Si](C)(C)C(C)(C)C)[C@H](/C=C/C(=O)NCC(=O)OC)O[Si](C)(C)C(C)(C)C

A.
1: > 100 µM; 2: > 25 µM

----------
# System: NCI-H226 lung
# experiment: NCI tumour cell line growth inhibition, 48 h
For each of the molecules below, state its TGI.

- molecule: "CCOc1ccc(NC(=S)/N=C/C(C(=O)Nc2ccccc2C)=C(\\C)O)cc1"
  tgt: "NCI-H226 lung"
  measurement.name: "TGI"
  observed: "> 100 µM"
- molecule: "COC(=O)c1cc2c3c(c(C(C)=O)c(OC)c2[nH]1)NCC3"
  tgt: "NCI-H226 lung"
  measurement.name: "TGI"
  observed: "> 50 µM"
- molecule: "Cc1csc(Nc2nc(-c3cccc(Cl)c3)nc(C(Cl)(Cl)Cl)n2)n1"
  tgt: "NCI-H226 lung"
  measurement.name: "TGI"
  observed: "> 33.3 µM"
- molecule: "c1ccc(COc2ncccc2C2SCCCS2)cc1"
  tgt: "NCI-H226 lung"
  measurement.name: "TGI"
  observed: "> 100 µM"
- molecule: "CC(=O)N[C@@H]1CCC[C@H](C(=O)Nc2cc(-c3cnn4c3CC(C)(C)C4)c(Cl)cn2)C1"
  tgt: "NCI-H226 lung"
  measurement.name: "TGI"
  observed: "38.7 µM"
- molecule: "COC1(OC)/C(=C(\\N)C=O)NC(C)(C)N1O"
  tgt: "NCI-H226 lung"
  measurement.name: "TGI"
  observed: "> 100 µM"
- molecule: "Cc1ns/c(=N\\C(=S)N(C)C)n1C"
  tgt: "NCI-H226 lung"
  measurement.name: "TGI"
  observed: "> 100 µM"

--- query ---
Measured TGI, O=c1[nH]c2cc(O)ccc2n2cc3c(F)cccc3c12 : > 100 µM

----------
# Test system: CCRF-CEM leukemia
# experiment: NCI tumour cell line growth inhibition, 48 h
measurement.name: TGI

Reference set, count: 2
- compound: "COc1ccc(N=C2NN=C(c3c[nH]c4ccccc34)CS2)cc1OC"
  TGI: "> 100 µM"
- compound: "COC1C(CO)OC(n2c3ccccc3c3c4c(c5c6ccccc6[nH]c5c32)C(=O)NC4=O)C(O)C1OC(=O)C(N)CCCCN (stereo not drawn)"
  TGI: "> 50 µM"

Measured TGI, CC1=CC(c2ccccc2)n2c(nc3cc4ccccc4cc32)N1 (stereo not drawn) : > 100 µM
